All figures here come from patent US12371454B2.

- targetEntity: Kras and SOS1 (biotin-tagged human Kras loaded with GDP, His-tagged human SOS1) (Homo sapiens, UniProt P01116, G12D)
- Construct: made in house; host or cells: E. coli (stated for Kras only)
- Sequence (P01116 1-188 isoform P01116-2 G12D): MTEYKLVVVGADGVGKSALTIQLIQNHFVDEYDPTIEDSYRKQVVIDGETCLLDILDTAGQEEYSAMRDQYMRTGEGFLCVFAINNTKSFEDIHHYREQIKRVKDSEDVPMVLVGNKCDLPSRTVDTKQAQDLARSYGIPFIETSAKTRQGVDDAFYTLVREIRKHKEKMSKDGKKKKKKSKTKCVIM
- procedureDetails: Protein-protein interaction inhibition between Kras and SOS1 (KrasGl2D-SOS PPI) using AlphaScreen
- Format: binding
- conditionInfo: AlphaScreen; biotin-tagged human Kras loaded with GDP, His-tagged human SOS1; read-out: KRAS G12D-SOS PPI IC50
Positions of bridges follow the written chain, without caps; N, C: chain ends. Non-standard residues stand in square brackets, D forms with d. Residues, ends and D or L forms follow the SMILES beside them. *: point of attachment. hPhe(3-Cl-4-CF3) = N[C@@H](CCc1ccc(C(F)(F)F)c(Cl)c1)C(=O)O; Phe(2-CF3) = N[C@@H](Cc1ccccc1C(F)(F)F)C(=O)O; NMePhe(4-Me) = CN[C@@H](Cc1ccc(C)cc1)C(=O)O; Phe(3-I) = N[C@@H](Cc1cccc(I)c1)C(=O)O; NMe3Pal = CN[C@@H](Cc1cccnc1)C(=O)O; NMeCha = CN[C@@H](CC1CCCCC1)C(=O)O; NMeChg = CN[C@H](C(=O)O)C1CCCCC1; NMeD = CN[C@@H](CC(=O)O)C(=O)O; NMeL = CN[C@@H](CC(C)C)C(=O)O; NMeA = CN[C@@H](C)C(=O)O; NMeAib = CNC(C)(C)C(=O)O; Piperidide = C1CCN(*)CC1; Ac5c = NC1(C(=O)O)CCCC1; Sar = CNCC(=O)O
Provide the reported pIC50 of each item.
Please keep in mind that pIC50 is minus log10 of the molar concentration; only the number is needed.

[Q] Consider the compound CC[C@H](C)[C@@H]1NC(=O)[C@H](C)N(C)C(=O)C[C@@H](C(=O)N2CCCCC2)N(C)C(=O)[C@H](C2CCCCC2)N(C)C(=O)C2(CCCC2)NC(=O)[C@H](Cc2cccnc2)N(C)C(=O)[C@H](CCc2ccc(C(F)(F)F)c(Cl)c2)NC(=O)CN(C)C(=O)[C@H](CC2CCCCC2)N(C)C(=O)[C@@H]2CCCN2C(=O)CN(C)C1=O [Compound 433] ([NMeA]I[Sar]P[NMeCha][Sar][hPhe(3-Cl-4-CF3)][NMe3Pal][Ac5c][NMeChg][NMeD]-Piperidide; lactam N-11) . State its measured pIC50.
[A] 8.66

[Q] Consider the compound CC[C@H](C)[C@@H]1NC(=O)[C@H](CC(C)C)N(C)C(=O)C[C@@H](C(=O)N2CCCCC2)N(C)C(=O)[C@H](CC(C)C)NC(=O)C(C)(C)N(C)C(=O)[C@H](Cc2ccccc2C(F)(F)F)NC(=O)[C@H](Cc2cccc(I)c2)NC(=O)CN(C)C(=O)[C@H](Cc2ccc(C)cc2)N(C)C(=O)CN(C)C(=O)CN(C)C1=O [Compound 1127] ([NMeL]I[Sar][Sar][NMePhe(4-Me)][Sar][Phe(3-I)][Phe(2-CF3)][NMeAib]L[NMeD]-Piperidide; lactam N-11) . State its measured pIC50.
[A] 6.59

---

- targetEntity: Kras and SOS1 (biotin-tagged human Kras loaded with GDP, His-tagged human SOS1) (Homo sapiens, UniProt P01116, G12D)
- Construct: made in house; host or cells: E. coli (stated for Kras only)
- procedureDetails: Protein-protein interaction inhibition between Kras and SOS1 (KrasGl2D-SOS PPI) using AlphaScreen
- Format: binding
- conditionInfo: AlphaScreen; biotin-tagged human Kras loaded with GDP, His-tagged human SOS1; read-out: KRAS G12D-SOS PPI IC50
Starred links: 1 amine or outer side, 2 acyl side, 3 side chain; linkers in the order of their positions; H or OH if unused. Positions of bridges follow the written chain, without caps; N, C: chain ends. Non-standard residues stand in square brackets, D forms with d. Residues, ends and D or L forms follow the SMILES beside them. *: point of attachment. hPhe(3-Cl-4-CF3) = N[C@@H](CCc1ccc(C(F)(F)F)c(Cl)c1)C(=O)O; hPhe(3-F,4-CF3) = N[C@@H](CCc1ccc(C(F)(F)F)c(F)c1)C(=O)O; NMePhe(4-CF3) = CN[C@@H](Cc1ccc(C(F)(F)F)cc1)C(=O)O; X22 = O=C([C@@H]1Cc2ccccc2N1[*:1])[*:2]; NMeGly(cPent) = CN[C@H](C(=O)O)C1CCCC1; NMeGly(cBu) = CN[C@H](C(=O)O)C1CCC1; NMeCha = CN[C@@H](CC1CCCCC1)C(=O)O; NMeChg = CN[C@H](C(=O)O)C1CCCCC1; N(CH2CH2)2CF2 = FC1(F)CCN(*)CC1; NMeD = CN[C@@H](CC(=O)O)C(=O)O; NMeL = CN[C@@H](CC(C)C)C(=O)O; NMeA = CN[C@@H](C)C(=O)O; NMeAib = CNC(C)(C)C(=O)O; Piperidide = C1CCN(*)CC1; Pyrrolidide = C1CCN(*)C1; Ac5c = NC1(C(=O)O)CCCC1; Aze = O=C(O)[C@@H]1CCN1; Sar = CNCC(=O)O
observationType: pIC50
Please keep in mind that pIC50 is minus log10 of the molar concentration; only the number is needed.

[Q] Consider the compound CC[C@H](C)[C@@H]1NC(=O)[C@H](CC(C)C)N(C)C(=O)C[C@@H](C(=O)N2CCCCC2)N(C)C(=O)[C@H](C2CCCCC2)N(C)C(=O)C2(CCCC2)NC(=O)[C@@H]2Cc3ccccc3N2C(=O)[C@H](CCc2ccc(C(F)(F)F)c(Cl)c2)NC(=O)CN(C)C(=O)[C@H](CC2CCCCC2)N(C)C(=O)[C@@H]2CCN2C(=O)CN(C)C1=O [Compound 725] ([NMeL]I[Sar][Aze][NMeCha][Sar][hPhe(3-Cl-4-CF3)][X22][Ac5c][NMeChg][NMeD]-Piperidide; lactam N-11) . State its measured pIC50.
[A] 8.11

[Q] Consider the compound CC[C@H](C)[C@@H]1NC(=O)[C@H](CC(C)C)N(C)C(=O)C[C@@H](C(=O)N(C)C)N(C)C(=O)[C@H](C2CCCC2)N(C)C(=O)C2(CCCC2)NC(=O)[C@H](CC(=O)N2CCC(F)(F)CC2)N(C)C(=O)[C@H](CCc2ccc(C(F)(F)F)c(Cl)c2)NC(=O)CN(C)C(=O)[C@H](CC2CCCCC2)N(C)C(=O)[C@@H]2CCN2C(=O)[C@H](C)N(C)C1=O [Compound 1955] ([NMeL]I[NMeA][Aze][NMeCha][Sar][hPhe(3-Cl-4-CF3)][NMeD](N(CH2CH2)2CF2)[Ac5c][NMeGly(cPent)][NMeD]-NMe2; lactam N-11) . State its measured pIC50.
[A] 8.82

[Q] Consider the compound CC[C@H](C)[C@@H]1NC(=O)[C@H](CC(C)C)N(C)C(=O)C[C@@H](C(=O)N2CCCC2)N(C)C(=O)[C@H](CC(C)C)NC(=O)C(C)(C)N(C)C(=O)[C@H](CC(C)C)NC(=O)[C@H](CCc2ccc(C(F)(F)F)c(F)c2)NC(=O)CN(C)C(=O)[C@H](CC2CCCCC2)N(C)C(=O)CN(C)C(=O)CN(C)C1=O [Compound 312] ([NMeL]I[Sar][Sar][NMeCha][Sar][hPhe(3-F,4-CF3)]L[NMeAib]L[NMeD]-Pyrrolidide; lactam N-11) . State its measured pIC50.
[A] 9.00

[Q] Consider the compound CC[C@H](C)[C@@H]1NC(=O)[C@H](C2CCC2)N(C)C(=O)C[C@@H](C(=O)N2CCCC2)N(C)C(=O)[C@H](C2CCCCC2)N(C)C(=O)C2(CCCC2)NC(=O)[C@@H]2CCCN2C(=O)[C@H](CCc2ccc(C(F)(F)F)c(Cl)c2)NC(=O)CN(C)C(=O)[C@H](Cc2ccc(C(F)(F)F)cc2)N(C)C(=O)CN(C)C(=O)CN(C)C1=O [Compound 73] ([NMeGly(cBu)]I[Sar][Sar][NMePhe(4-CF3)][Sar][hPhe(3-Cl-4-CF3)]P[Ac5c][NMeChg][NMeD]-Pyrrolidide; lactam N-11) . State its measured pIC50.
[A] 9.48
